Would you mind telling me the reported hemolysis at 1 h, 200 µM of each entry?
- Assay comment: Hemolysis assay with red blood cells
- Condition details: human, pH 7.2
Give just the number in %; leave the unit off.

Entry Cc1cccc2nc3c(O)c(Br)cc(Br)c3nc12 [HP 17, 6-methyl-2,4-dibromo-1-hydroxyphenazine] : reported hemolysis at 1 h, 200 µM = ?
6.7

Next up: CCc1cccc2nc3c(O)c(Br)cc(Br)c3nc12
1.7

Next up: COCCOCCOCCOCCOC(=O)Oc1c(Br)cc(Br)c2nc3ccccc3nc12
2.4

Next up: Cc1ccc2nc3c(O)c(Br)cc(Br)c3nc2c1C
5.3

====

- System: MtB H37Ra
- Assay comment: MIC assay for Mycobacterium tuberculosis
- Type: cell-based
- Condition details: 168 h, seven days
Values of MIC strictly less than 20 µM map to MET, and values of at least 20 µM map to NOT MET.

Find out if reported MIC for Cc1cccc2nc3c(O)c(Br)cc(Br)c3nc12 [HP 17, 6-methyl-2,4-dibromo-1-hydroxyphenazine] is less than 20 µM
NOT MET

Next up: COCCOCCOCCOCCOC(=O)Oc1c(Br)cc(Br)c2nc3ccccc3nc12
NOT MET

Next up: [H]/N=C(/N)N[C@H]1[C@H](O)[C@@H](O)[C@H](O[C@@H]2O[C@@H](C)[C@](O)(C=O)[C@H]2O[C@@H]2O[C@@H](CO)[C@H](O)[C@@H](O)[C@@H]2NC)[C@@H](N/C(N)=N\[H])[C@@H]1O [streptomycin, reference compound]
MET

Next up: CCc1cccc2nc3c(O)c(Br)cc(Br)c3nc12
NOT MET

Next up: Oc1c(Br)cc(Br)c2nc3ccccc3nc12 [HP 1, 2,4-dibromo-1-hydroxyphenazine]
NOT MET

Next up: Cc1cc(Cl)c2nc3c(C)cc(Br)c(O)c3nc2c1
NOT MET

Next up: Oc1c(Br)cc(Br)c2nc3c(Cl)cccc3nc12
NOT MET

Next up: Oc1c(Br)cc(Br)c2nc3ccc(Cl)cc3nc12
MET

Next up: COCCOCCOCCOCCOC(=O)Oc1c(Br)cc(Br)c2nc3c(C)cccc3nc12
MET

====

- Tested on: MRSE 35984
- Assay comment: MIC broth microdilution assay
- Format: cell-based, Staphylococcus epidermidis
- Condition details: Staphylococcus epidermidis, MRSE, Table 1; read-out: MIC MRSE 35984
Values of MIC strictly less than 3 µM map to class 1, and values of at least 3 µM map to class 0.

Find out if reported MIC for CC(=O)NC[C@H]1CN(c2ccc(N3CCOCC3)c(F)c2)C(=O)O1 [linezolid, reference compound] is less than 3 µM
class 0

Next up: COCCOCCOCCOCCOC(=O)Oc1c(Br)cc(Br)c2nc3ccccc3nc12
class 1

Next up: Cc1cc(Br)c(O)c2nc3cc(C(C)(C)C)ccc3nc12
class 0

Next up: Cc1ccc2nc3c(Br)cc(Br)c(O)c3nc2c1
class 0

Next up: Oc1c(Br)cc(Br)c2nc3ccc(Br)cc3nc12
class 0

Next up: CCCCCCCCCC(=O)N[C@@H](Cc1c[nH]c2ccccc12)C(=O)N[C@H](CC(N)=O)C(=O)N[C@@H](CC(=O)O)C(=O)N[C@@H]1C(=O)NCC(=O)N[C@@H](CCCN)C(=O)N[C@@H](CC(=O)O)C(=O)N[C@H](C)C(=O)N[C@@H](CC(=O)O)C(=O)NCC(=O)N[C@H](CO)C(=O)N[C@@H]([C@H](C)CC(=O)O)C(=O)N[C@@H](CC(=O)c2ccccc2N)C(=O)O[C@@H]1C [daptomycin, reference compound]
class 0

Next up: Cc1cc(Br)c(O)c2nc3cc(Br)ccc3nc12
class 0

Next up: Cc1cc(Br)c(O)c2nc3cccc(Cl)c3nc12
class 1

Next up: Oc1c(Br)cc(Br)c2nc3ccccc3nc12 [HP 1, 2,4-dibromo-1-hydroxyphenazine]
class 1

Next up: Oc1c(Br)cc(Br)c2nc3c(O)c(Br)cc(Br)c3nc12
class 0

Next up: CCc1cc(Br)c2nc3c(C)cc(Br)c(O)c3nc2c1
class 0

Next up: COCCOCCOCCOCCOC(=O)Oc1c(Br)cc(Br)c2nc3c(C)cccc3nc12
class 1

====

- System: MRSA BAA-1707
- Assay comment: MIC assay with metal(II) cation co-treatment
- Format: cell-based, Staphylococcus aureus
- Condition details: Staphylococcus aureus, copper(II) at 200 µM co-treatment; read-out: MIC w/Cu2+
Would you mind telling me the reported MIC of each entry?
Give just the number in µM; leave the unit off.

Entry Oc1c(Br)cc(Br)c2nc3c(Cl)cccc3nc12 : reported MIC = ?
6.25

Next up: Oc1cccc2nc3ccccc3nc12 [1-OHP, 1-hydroxyphenazine, reference compound]
75

Next up: C[C@H]1c2cccc(O)c2C(=O)C2=C(O)[C@]3(O)C(=O)C(C(N)=O)=C(O)[C@@H](N(C)C)[C@@H]3[C@@H](O)[C@@H]21 [Doxy., Doxycycline, reference compound]
0.78

Next up: Cc1cccc2nc3c(O)c(Br)cc(Br)c3nc12 [HP 17, 6-methyl-2,4-dibromo-1-hydroxyphenazine]
75

Next up: O=C(O)CN(CCN(CC(=O)O)CC(=O)O)CC(=O)O [EDTA, ethylenediaminetetraacetic acid, reference compound]
50

====

- System: VRE 700221
- Assay comment: MIC broth microdilution assay
- Format: cell-based, Enterococcus faecium
- Condition details: Enterococcus, VRE, Table 1; read-out: MIC VRE 700221
Measured metric: MIC

Look up MIC with VRE 700221 for this compound: Cc1ccc2nc3c(O)c(Br)cc(Br)c3nc2c1C
0.15 to 1.56 µM

Next up: Cc1cccc2nc3c(O)c(Br)cc(C)c3nc12
> 100 µM

Next up: CCc1cccc2nc3c(O)c(Br)cc(C)c3nc12
0.78 to 2.35 µM

Next up: Cc1cc(Br)c(O)c2nc3cc(C(C)(C)C)ccc3nc12
> 100 µM

Next up: Oc1c(Br)cc(Br)c2nc3c(O)c(Br)cc(Br)c3nc12
> 50 µM
